molecular target: T1, Human CD3 on Human CD3+ Jurkat cells (human, UniProt P07766 23-207); assay: cell binding hCD3, fold over background
T1 construct: whole, on cells; CD3 complex on cells; also called hCD3
T1 sequence (P07766 23-207): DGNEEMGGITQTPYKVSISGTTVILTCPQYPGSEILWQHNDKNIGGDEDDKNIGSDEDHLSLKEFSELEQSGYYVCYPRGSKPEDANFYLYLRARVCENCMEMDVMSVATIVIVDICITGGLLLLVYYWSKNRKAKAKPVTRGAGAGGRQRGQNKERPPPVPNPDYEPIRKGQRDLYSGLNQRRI
As shown below, each of these binders has a reported Cell Binding hCD3 (FOB) value.
Report only the number, with the unit FOB understood.

ADI-46366 (antibody, V domains shown, also called Ab50) VH: QVQLVQSGAEVKKPGASVKVSCKASGFNIKDYYMHWVRQAPGQRLEWIGWIDLENANTVYDAKFQGRVTITRDTSASTAYMELSSLRSEDTAVYYCARDAYGQYFYDVWGQGTLVTVSS VL: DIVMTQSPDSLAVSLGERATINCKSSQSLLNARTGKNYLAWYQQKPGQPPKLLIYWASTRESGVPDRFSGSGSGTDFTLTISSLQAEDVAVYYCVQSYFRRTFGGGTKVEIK ... 43

Next up:
Record summary for ADI-46367 (antibody, V domains shown, also called Ab32) VH: QVQLVQSGAEVKKPGASVKVSCKASGFNIKDYYMHWVRQAPGQRLEWIGWIDLENANTVYDAKFQGRVTITRDTSASIAYMELSSLRSEDTAVYYCARDAYGRYFYDVWGQGTLVTVSS VL: DIVMTQSPDSLAVSLGERATINCKSSQSLLNARTGKNYLAWYQQKPGQPPKLLIYWASTRESGVPDRFSGSGSGTDFTLTISSLQAEDVAVYYCAQSYFRRTFGGGTKVEIK : reported Cell Binding hCD3 (FOB) = 8
